src = PubChem BioAssay

target: Neurogenic locus notch homolog protein 2 (Homo sapiens); assay: small molecules binding Notch2 protein – biochemical, small-molecule microarray, 635 nm fluorescence, stem cell growth factors, primary screen (AID 1073); details: higher = more signal
Decide by composite z-score: equal to or exceeding 0.6 means Yes, less means No.

Compound: COCCOC(=O)N1C(=O)[C@@]2(c3ccccc31)[C@H](C(=O)N1CCN(c3ncccn3)CC1)[C@H]1C(=O)O[C@H](c3ccccc3)[C@H](c3ccccc3)N1[C@@H]2c1ccccc1OCCO
Target Or Test System: Neurogenic locus notch homolog protein 2 (Homo sapiens)
Label: Yes
//
Compound: C[C@@H]1ON(c2ccccc2)[C@H](c2ccccc2)[C@H]1C(=O)O
Target Or Test System: Neurogenic locus notch homolog protein 2 (Homo sapiens)
Label: No
//
Compound: CCOC(=O)C[C@H]1[C@H](OC(=O)c2cc3ccccc3oc2=O)[C@@H](NC(=O)CC(C)C)c2cc(OCCCO)ccc2N1C(=O)Cc1ccc(OC)cc1
Target Or Test System: Neurogenic locus notch homolog protein 2 (Homo sapiens)
Label: No
//
Compound: CC(C)C(=C=CC[C@H](O)c1ccccc1OCCO)C[C@H](O)c1cc(Cl)cc(Cl)c1O
Target Or Test System: Neurogenic locus notch homolog protein 2 (Homo sapiens)
Label: Yes
//
Compound: COC(=O)[C@@]1(Cc2ccc(F)cc2)[C@H]2c3cc(C(=O)N4CCCC4)n(Cc4ccccn4)c3C[C@H]2CN1C(=O)c1ccccc1
Target Or Test System: Neurogenic locus notch homolog protein 2 (Homo sapiens)
Label: Yes
//
Compound: O=C1NC(=O)C2C1C=CC(C(O)c1ccc([N+](=O)[O-])cc1)N2Nc1ccccn1 (stereo not given)
Target Or Test System: Neurogenic locus notch homolog protein 2 (Homo sapiens)
Label: Yes
//
Compound: COCCOC(=O)N1C(=O)[C@@]2(c3cc(C#CCCO)ccc31)[C@H](c1ccccc1OCCO)N1[C@H](c3ccccc3)[C@H](c3ccccc3)OC(=O)[C@H]1[C@@H]2C(N)=O
Target Or Test System: Neurogenic locus notch homolog protein 2 (Homo sapiens)
Label: Yes
//
Compound: CC(C)NC(=O)[C@@]1(c2ccc([N+](=O)[O-])cc2)CC(=O)N(CC23CC4CC(CC(C4)C2)C3)[C@@H]1c1ccc(CO)cc1
Target Or Test System: Neurogenic locus notch homolog protein 2 (Homo sapiens)
Label: Yes
//
Compound: O=C1OCCC=C[C@H]2OC34C=CCN(c5ccc6ccccc6c5)C(=O)[C@H]3N(CCO)C(=O)[C@@H]4C12 (stereo not given in full)
Target Or Test System: Neurogenic locus notch homolog protein 2 (Homo sapiens)
Label: No
//
Compound: COc1ccc([Si](C)(C)[C@H]2[C@H](CC(=O)N3Cc4ccccc4C[C@H]3CO)O[C@@]3(C(=O)N(C)c4c(Br)cc(C)cc43)[C@@H]2C)cc1
Target Or Test System: Neurogenic locus notch homolog protein 2 (Homo sapiens)
Label: No
//
Compound: COC(=O)[C@]1(CCC(=O)OC(C)(C)C)N=C(c2ccc(OCCCO)cc2)O[C@@H]1c1ccccc1N=[N+]=[N-]
Target Or Test System: Neurogenic locus notch homolog protein 2 (Homo sapiens)
Label: No
//
Compound: COc1ccc(NN2C(C(O)c3ccc(I)cc3)C=CC3C(=O)N(C4CCCCC4)C(=O)C32)cc1 (stereo not given)
Target Or Test System: Neurogenic locus notch homolog protein 2 (Homo sapiens)
Label: Yes
//
Compound: C=CC[C@]1(C(=O)NCC(O)CO)COC(c2ccc(OCCCO)cc2)=N1 (stereo not given in full)
Target Or Test System: Neurogenic locus notch homolog protein 2 (Homo sapiens)
Label: No
//
Compound: CCOC(=O)C1=CC[C@@H](c2ccccc2)N(S(=O)(=O)c2ccc(C)cc2)[C@H]1c1ccccc1I
Target Or Test System: Neurogenic locus notch homolog protein 2 (Homo sapiens)
Label: Yes
//
Compound: CCCCC(O)C1C=CC2C(=O)N(c3ccccc3)C(=O)C2N1Nc1ccccc1 (stereo not given)
Target Or Test System: Neurogenic locus notch homolog protein 2 (Homo sapiens)
Label: Yes
